These records show IC50 for full-length MALT1 protein (Strep-MALT1(1-824)-His) (Homo sapiens (Human), UniProt Q9UDY8).
A number alone suffices; assume nM.

N#Cc1ccc(-n2ncc(C(=O)Nc3ccnc(C(F)(F)F)c3)c2C(F)(F)F)c2ccnn12 [Cpd 11]    89
O=C(Nc1cnc([C@@H]2CCCO2)c(Cl)c1)c1cnn(-c2ccc(Cl)c3nccn23)c1C(F)(F)F (single isomer, unassigned) [Cpd 20]    355
CS(=O)(=O)c1c(C(=O)Nc2cnc(-n3nccn3)c(Cl)c2)cnn1-c1ccc(F)c2nccn12 [Cpd 8]    457
CO[C@H](C)c1ncc(NC(=O)c2cnn(-c3ccc(Cl)n4nccc34)c2C(F)(F)F)cc1Cl (single isomer, unassigned) [Cpd 28]    1320

Query block: For the molecule shown here, N#Cc1ccc(-n2ncc(C(=O)Nc3cnc(-n4nccn4)c(Cl)c3)c2C(F)(F)F)n2ccnc12 [Cpd 2] , give the reported IC50.
Result block: 38

Query block: For the molecule shown here, N#Cc1ccc(-n2ncc(C(=O)Nc3cnc(-n4nccn4)c(Cl)c3)c2C(F)(F)F)c2ccnn12 [Cpd 13] , give the reported IC50.
Result block: 19

Query block: For the molecule shown here, Cc1cc(NC(=O)c2cnn(-c3ccc(F)c4nccn34)c2C(F)(F)F)cnc1N=S(C)(C)=O [Cpd 29] , give the reported IC50.
Result block: 6000

Query block: For the molecule shown here, O=C(Nc1cnc(-c2ncco2)c(Cl)c1)c1cnn(-c2ccc(F)c3nccn23)c1C(F)(F)F [Cpd 6] , give the reported IC50.
Result block: 30

Query block: For the molecule shown here, CO[C@H](C)c1ncc(NC(=O)c2cnn(-c3ccc(C#N)n4nccc34)c2C(F)(F)F)cc1Cl (single isomer, unassigned) [Cpd 26] , give the reported IC50.
Result block: 562

Query block: For the molecule shown here, NC(=O)c1ccc(-n2ncc(C(=O)Nc3ccnc(C(F)(F)F)c3)c2C(F)(F)F)c2ccnn12 [Cpd 12] , give the reported IC50.
Result block: 219

###

- Tested on: IL6 secretion, OCI-LY3 cells
- Method: Human IL6 Mesoscale assay (OCI-LY3)
- Assay type: cell-based
- Details: 24 h incubation
pIC50: −log10 of the molar value.
Tag: 1 if measured pIC50 is not below 7, 0 if it is.

Some solved cases for reference:
N#Cc1ccc(-n2ncc(C(=O)Nc3cnc([C@@H]4CCCO4)c(Cl)c3)c2C(F)(F)F)c2ccnn12 (single isomer, unassigned)    0
O=C(Nc1cnc(-c2ncco2)c(Cl)c1)c1cnn(-c2ccc(F)c3nccn23)c1C(F)(F)F    0

Query block: Dear colleague, could you confirm whether Cc1cnc(-c2ncc(NC(=O)c3cnn(-c4ccc(F)c5nccn45)c3C(F)(F)F)cc2Cl)o1 has pIC50 at or above 7?
Result block: 0

Query block: Dear colleague, could you confirm whether NC(=O)c1ccc(-n2ncc(C(=O)Nc3ccnc(C(F)(F)F)c3)c2C(F)(F)F)c2ccnn12 has pIC50 at or above 7?
Result block: 0

Query block: Dear colleague, could you confirm whether CS(=O)(=O)c1ncc(NC(=O)c2cnn(-c3ccc(F)c4nccn34)c2C(F)(F)F)cc1C(F)(F)F has pIC50 at or above 7?
Result block: 0

Query block: Dear colleague, could you confirm whether O=C(Nc1cnc(-n2nccn2)c(C(F)(F)F)c1)c1cnn(-c2ccc(F)c3nccn23)c1C(F)(F)F has pIC50 at or above 7?
Result block: 1

Query block: Dear colleague, could you confirm whether O=C(Nc1cnc(-n2nccn2)c(Cl)c1)c1cnn(-c2ccc(Cl)n3nccc23)c1C(F)(F)F has pIC50 at or above 7?
Result block: 1
